- experimental-target: T1, UNK ZnF1-6 (called full-length) (human, UniProt Q9C0B0 30-357)
- T1 sequence: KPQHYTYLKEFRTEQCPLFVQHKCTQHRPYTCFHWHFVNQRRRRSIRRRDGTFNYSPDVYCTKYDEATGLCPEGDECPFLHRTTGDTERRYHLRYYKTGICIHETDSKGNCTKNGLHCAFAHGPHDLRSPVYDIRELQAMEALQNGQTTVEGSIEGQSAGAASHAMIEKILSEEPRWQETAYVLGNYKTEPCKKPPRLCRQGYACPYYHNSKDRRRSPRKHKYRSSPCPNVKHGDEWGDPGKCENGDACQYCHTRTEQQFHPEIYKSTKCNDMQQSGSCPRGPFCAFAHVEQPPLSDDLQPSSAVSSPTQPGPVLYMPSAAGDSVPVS
- assay-text: nsRBNS (natural sequence RNA bind-n-seq); RBNS binding buffer (assumed for nsRBNS): 25 mM Tris pH 7.5, 150 mM KCl, 3 mM MgCl2, 0.01% Triton X-100, 500 ug/ml BSA, 20 U/ml SUPERase-In, 4 C; UNK is unkempt and MSI1 is Musashi-1; names of the RNAs are library labels; protein concentration not given here; high values mean tight binding
In all, about 5,800 sequences were measured (“enrichment r”: median about 0.68, highest 2% from about 11 on). The full list was thinned out, with the highest values kept by preference.
assay-metric: binding signal

{"columns": ["binder", "binding signal"],
 "data": [
  ["chr16:87831719:87831834:-|3pUTR|ENSG00000103257|msi1_unk|total|mutant (ssRNA) RNA: GGGAGUUCUACAGUCCGACGAUCCCUGCGUUUGGAGGCCCCUGGGCUCUCACCCAGUCCCCACCCGCCUGCAGAGAGGGAACCCGGGCACCCCUUGUUUCUGUUGUUCCCGUGAAUUUUUUUCGCUAUGGGAGGCAGCCGAGGCAACAGAGGAUUGAGCAUCA", "0.698 enrichment R"],
  ["chr10:92030471:92030572:+|3pUTR|ENSG00000095564|unk|FALSE|unique (ssRNA) RNA: GGGAGUUCUACAGUCCGACGAUCUAUUUUUUUAUUAACUAUUUAUUUGCUAGUUCCAUAAACCAGCUCUUUAACAUAGCUUAUAGUAAUUGAUAUUUUCUUAGAAUAAGUACAGAGCAAUAUAUCAUUAAAGGGCUAUGAAGGCAACAGAGGAUUGAGCAUCA", "34.3 enrichment R"],
  ["chr1:180885099:180885158:+|3pUTR|ENSG00000143324|msi1_unk|FALSE|overlapping (ssRNA) RNA: GGGAGUUCUACAGUCCGACGAUCAGCUGAAGCUAUGCCUUAUUAUGCAUCCACAUGUAUGGUCCCUGUAGCGUGACCUUUACUAGCUCUGAAUCAGAAGACAGAGCUAUUUCAGAGGCUCUGUGUGCCCUCACUAGAUAGUUUCAACAGAGGAUUGAGCAUCA", "2.64 enrichment R"]
]}

In: Bench note: what binding signal did chr1:88684422:88684524:+|5pUTR|ENSG00000065243|unk|FALSE|unique (ssRNA) RNA: GGGAGUUCUACAGUCCGACGAUCUCGAUGAACCGGACGGAAUAAGCCGCGCCUCCAGCAGGGGCUGCGCCUCCAUGAAUCCCUAGUUGUUUUUUUUUUUUUCUUUCUCUCCCCUCUCCUCACCCCCACCCCGAGCCCCGUCCCCAACAGAGGAUUGAGCAUCA show?
Out: 39 enrichment R

In: Quick one: ENSG00000136451:be:win_3351|3pUTR|ENSG00000136451|bound_else_gene|NA|bound_elsewhere_windowed (ssRNA) RNA: GGGAGUUCUACAGUCCGACGAUCGAAGGCAACACAUUCCUACACUUUUAAUGUAUAUGUUUGUUAUAAUGUCCAUGUAAACAUGCCCUAUGUUUGUGCCUUUUAAUUAGUUUGUCUCAAUAAACAAAAUGUAGAGAAAAAUAUCAACAGAGGAUUGAGCAUCA
Out: 2.53 enrichment R

In: Input chr19:9526975:9527076:-|3pUTR|ENSG00000130818|unk|FALSE|unique (ssRNA) RNA: GGGAGUUCUACAGUCCGACGAUCCCUCUCAGACCUUCCAUCAUUACUAUAUUUCACUUUUAUGCCUAUAAACACACACAAAUUAGCAUAUGUAAUCUAAUACAUUGUAGCUAUUUUUCAGAAGUUAUCAGAUCAAUUAAGUAUCAACAGAGGAUUGAGCAUCA
Out: 4.62 enrichment R

In: Now consider chr1:228494639:228494729:+|3pUTR|ENSG00000168159|msi1_unk|FALSE|overlapping (ssRNA) RNA: GGGAGUUCUACAGUCCGACGAUCGCCAUCGUGUCUCAUCUUGCUGUUAUCUCUAGCUCUUUCCCUCCUCCCAUUUCCUUUAGUAGUUGAAUUUUGCAAAGCUUGUAGCAGUAGCUCAGUUGCCUGCAGCAUCCUUGUGUGUAGCAACAGAGGAUUGAGCAUCA and answer again.
Out: 14.7 enrichment R
